Reported pIC50 values for the following compounds.
Molecular target: Imidazoleglycerol-phosphate dehydratase (Cryptococcus neoformans var. neoformans B-3501A, UniProt P0CO23)
Sequence (P0CO23 whole entry, looked up): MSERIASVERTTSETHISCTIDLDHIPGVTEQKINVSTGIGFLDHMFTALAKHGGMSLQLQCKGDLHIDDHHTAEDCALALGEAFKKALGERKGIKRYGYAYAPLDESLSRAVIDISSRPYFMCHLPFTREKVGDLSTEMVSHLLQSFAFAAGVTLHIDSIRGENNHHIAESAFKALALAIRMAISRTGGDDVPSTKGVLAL
pIC50: −log10 of the molar value.
property.name: pIC50

> print(dat)
                                    compound  property.name  relational.operator  recorded.number
 1  O=C(/C=C/c1ccccc1)NC(Cn1cncn1)CP(=O)(O)O (stereo not given)          pIC50                    =             4.68
 2  O=C(CCc1cccc([N+](=O)[O-])c1)NC(Cn1cncn1)CP(=O)(O)O (stereo not given)          pIC50                    =             5.82
 3  CC1(CCC(=O)NC(Cn2cncn2)CP(=O)(O)O)SCCS1 (stereo not given)          pIC50                    =             6.10
 4  CC1(C)CC(=O)OC1CC(=O)NC(Cn1cncn1)CP(=O)(O)O (stereo not given)          pIC50                    =             5.54
 5  O=C(NC(Cn1cncn1)CP(=O)(O)O)c1ccccc1 (stereo not given)          pIC50                    <             4.30
 6  O=C(NC(Cn1cncn1)CP(=O)(O)O)c1ccco1 (stereo not given)          pIC50                    <             4.30
 7  O=C(COc1ccc(Cl)cc1)NC(Cn1cncn1)CP(=O)(O)O (stereo not given)          pIC50                    =             5.70
 8  O=C(Cc1ccccc1)NC(Cn1cncn1)CP(=O)(O)O (stereo not given)          pIC50                    =             5.57
 9  O=C(CO)NC(Cn1cncn1)CP(=O)(O)O (stereo not given)          pIC50                    =             6.04
10  O=C(CCC1CCCC1)NC(Cn1cncn1)CP(=O)(O)O (stereo not given)          pIC50                    =             5.51
11  C/C=C/C(=O)NC(Cn1cncn1)CP(=O)(O)O (stereo not given)          pIC50                    =             5.40
12  CCC(=O)NC(Cn1cncn1)CP(=O)(O)O (stereo not given)          pIC50                    =             5.21
13  CNC(=O)C(=O)NC(Cn1cncn1)CP(=O)(O)O (stereo not given)          pIC50                    <             4.30
14  CC(=O)NC(Cn1cncn1)CP(=O)(O)O (stereo not given)          pIC50                    =             5.41
15  O=C(NC(Cn1cncn1)CP(=O)(O)O)c1ccccc1O (stereo not given)          pIC50                    =             4.80
